targetSystem: biotinylated His-Avi-TEAD (194-411) (UniProt P28347)
measurementNotes: SSM screen, enrichment after two rounds of sorting
Let's look at some binders and their measured enrichment score.

Study these solved cases before continuing.
binder	enrichment score
GSPDEYIERAKPCCKKGDIQCCLRYFEESGDPNVMLICLFCP (designed binder) [E10P variant of SEQ ID NO: 1]	-3.72
GSPDEYIERAKECCKKSDIQCCLRYFEESGDPNVMLICLFCP (designed binder) [G15S variant of SEQ ID NO: 1]	2.37
GSPDEYIELAKECCKKGDIQCCLRYFEESGDPNVMLICLFCP (designed binder) [R07L variant of SEQ ID NO: 1]	-0.39
GSKDEYIERAKECCKKGDIQCCLRYFEESGDPNVMLICLFCP (designed binder) [P01K variant of SEQ ID NO: 1]	-0.29
GSPDEYIERAKECCKKVDIQCCLRYFEESGDPNVMLICLFCP (designed binder) [G15V variant of SEQ ID NO: 1]	0.99

Continue with the next binder.
Query block: Assign enrichment score to the following record: GSPDEYIERAKECCKKGDISCCLRYFEESGDPNVMLICLFCP (designed binder) [Q18S variant of SEQ ID NO: 1]
Result block: -1.25
